# system under test: Nuclear receptor subfamily 1 group I member 2 (Homo sapiens)
# assay details: Human pregnane X receptor (PXR) small molecule agonists, qHTS assay (AID 1346982); further: nearly all actives have a fitted effect of over 35% in size
# experimental conditions: PXR-Luc HepG2, CYP3A4 luciferase reporter, 24 h; series mostly up to 92.4 µM
Records with an inconclusive call do not appear. The source made the active and inactive calls. The call rests on the fitted dose curve; in most records, active means well fitted activation curve with a large enough effect in the repeat runs; inconclusive means weak or mixed curves; inactive means no such curve, though single readings can be large or run the other way.
Choose the fitting class; nothing outside yes (1) for active, no (0) for inactive is accepted.

Just curious, what result did CC(C)(c1ccc(OCC2CO2)cc1)c1ccc(OCC2CO2)cc1 (stereo unspecified) get here?
yes (1)

Assay result, entry CCCCOCC1CO1 (stereo unspecified) — outcome?
no (0)

Could you kindly confirm the outcome this assay logged for Oc1ccc(Cl)cc1Cl ?
no (0)

Just curious, what result did CCC1(c2ccc(N)cc2)CCC(=O)NC1=O (stereo unspecified) get here?
no (0)

How was CC(O)CN(CC(C)O)CC(C)O (stereo unspecified) classified in this test?
no (0)

Given [CH3][Sn]([Cl])([Cl])[Cl] , state the outcome it received in this test.
no (0)

----------
# assay details: qHTS assay to identify small molecule antagonists of the androgen receptor (AR) signaling pathway using the MDA cell line in the presence of 0.5 nM R1881 - cell viability counter screen (AID 1259242); further: nearly all actives have a fitted effect of over 45% in size
# experimental conditions: MDA-kb2 viability, CellTiter-Fluor protease fluorescence, 16 h; series mostly up to 92.4 µM
Records with an inconclusive call do not appear. Activity calls are given as the source filed them. The call rests on the fitted dose curve; in most records, active means well fitted cell-killing curve with a large enough effect in the repeat runs; inconclusive means weak or mixed curves, or effect the other way; inactive means flat fitted curve, though single readings scatter.
Just give me one of these, please: active, inactive

Record request — test call for CNC(=O)Oc1cccc2c1OC(C)(C)C2
inactive

For COc1ccc(CO)cc1 , which call appears in the assay record?
inactive

Recorded call for CN(C)P(=O)(N(C)C)N(C)C ?
inactive

Could you kindly confirm the outcome this assay logged for N#Cc1nn(-c2c(Cl)cc(C(F)(F)F)cc2Cl)c(N)c1S(=O)C(F)(F)F (stereo not drawn) ?
inactive

Hi, sorry to bother you, what did the test record for C[C@]12CCC(=O)C=C1CC[C@@H]1[C@@H]2CC[C@@]2(C)[C@H]1CC[C@]2(C)O ?
inactive

What classification did Cc1cc(Cl)ccc1N=CN(C)C end up with in this test?
inactive

Given N#CC(c1ccccc1)c1ccccc1 , state the outcome it received in this test.
inactive

What was the test verdict on CC(C)(O)C(=O)Nc1ccc([N+](=O)[O-])c(C(F)(F)F)c1 ?
inactive

Returns: the outcome recorded for CNC(=O)CSP(=S)(OC)OC in this assay.
inactive

Answer briefly: the call reported for Nc1ncn[nH]1 in this assay.
inactive

Tell me the recorded outcome of this test for O=C1C(Cl)=C(Cl)C(=O)c2ccccc21 .
active

I'd appreciate the recorded outcome for CCOP(=S)(OCC)OP(=S)(OCC)OCC from this test.
inactive

Recorded test outcome, item ClC(Cl)(Cl)Br
inactive

Please state the recorded outcome for this molecule: CS(=O)(=O)NC(=O)c1cc(Oc2ccc(C(F)(F)F)cc2Cl)ccc1[N+](=O)[O-]
inactive

Query: recorded result category for O=C(O)CF in this test
inactive

Check the results log: what was the call for CCCCOCCOC(C)=O ?
inactive

Hi, do you know how CN(C)c1ccccc1 came out in this test?
inactive

Given NC(=O)CN1CCCC1=O , state the outcome it received in this test.
inactive

For this molecule, state the assay outcome: CCOP(=O)(OCC)OCC
inactive

I would be grateful if you could indicate the recorded call for NN=C(N)N .
inactive

Tell me the assay call for COP(=S)(OC)Oc1ccc(S(=O)(=O)N(C)C)cc1 please.
inactive

Test call for this molecule, please: O=NN(c1ccccc1)c1ccccc1
inactive

Status in this test for S=c1[nH]c2ccccc2[nH]1 ?
inactive

Dear all, I need the recorded test outcome for CCCCCCCCCC(CC)c1ccc(S(=O)(=O)O)cc1 (stereo not drawn) , thank you.
inactive

Fill in: this test's call for ClC(Cl)=C(Cl)C(Cl)=C(Cl)Cl is ___
inactive

Hi, sorry to bother you, what did the test record for C[N+](C)(C)CC(=O)[O-] ?
inactive

Outcome logged for Cc1ccc([N+](=O)[O-])cc1 in this assay:
inactive

# outcome recorded in this test, key = O=P(OCCCl)(OCCCl)OCCCl
inactive

Please indicate how the test categorized CC(C)(C#N)N=NC(C)(C)C#N .
inactive

Could you please tell me the result logged for Clc1ccc(C(Cl)(Cl)Cl)cc1 in this assay?
inactive

Could you please tell me the result logged for N#CCCCCC#N in this assay?
inactive

# outcome recorded in this test, key = C[N+](C)(C)C
inactive

Lab log entry: C=C(C)C#N — outcome as called in the assay?
inactive

State the result this test recorded for ClCC(Cl)CCl .
inactive

Could you kindly confirm the outcome this assay logged for CCC1(c2ccc(N)cc2)CCC(=O)NC1=O (stereo not drawn) ?
inactive

Could you check what this test reported for O=S(=O)(O)C(F)(F)C(F)(F)C(F)(F)C(F)(F)C(F)(F)C(F)(F)C(F)(F)C(F)(F)F ?
inactive

How was C=CC(=O)OCC(CC)(COC(=O)C=C)COC(=O)C=C classified in this test?
active

How was COc1ccc(C=O)cc1OC classified in this test?
inactive

Data origin, for the record: PubChem BioAssay (Tox21)
